Target: human renin (Homo sapiens, UniProt P00797)
Construct: A human plasma pool is used as the source of both the substrate (angiotensinogen) and the enzyme (renin)
Sequence (P00797 67-406): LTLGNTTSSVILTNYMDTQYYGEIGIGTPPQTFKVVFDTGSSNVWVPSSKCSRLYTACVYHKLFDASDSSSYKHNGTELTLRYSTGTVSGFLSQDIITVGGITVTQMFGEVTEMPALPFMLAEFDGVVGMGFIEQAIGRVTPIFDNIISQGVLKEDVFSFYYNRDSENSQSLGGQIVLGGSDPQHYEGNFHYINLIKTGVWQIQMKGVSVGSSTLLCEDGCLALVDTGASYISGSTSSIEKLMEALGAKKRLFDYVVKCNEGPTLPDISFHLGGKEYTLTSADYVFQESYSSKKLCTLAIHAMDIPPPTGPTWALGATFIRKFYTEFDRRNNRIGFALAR
Assay: Plasma renin assay (inhibition of human renin, angiotensin I by RIA)
Conditions: human plasma pool, pH 6.0, 2 h incubation at 37°
Please provide measured pIC50 for the entries that follow.
Please express pIC50 as -log10 of the molar concentration.

Would you kindly share the measured pIC50 for `CC(C)C[C@H](O)[C@H](O)[C@H](CC1CCCCC1)NC(=O)[C@@H](CC(=O)N(CC(=O)N(C)C)Cc1ccccc1)Cc1csc(N)n1` ?
8.52

Would you kindly share the measured pIC50 for `CCN(CC)C(=O)CN(Cc1ccccc1)C(=O)C[C@@H](CC1CC1)C(=O)N[C@@H](CC1CCCCC1)[C@@H](O)[C@@H](O)CC(C)C` ?
6.85

Would you kindly share the measured pIC50 for `C[C@@H](c1ccccc1)N(CC(=O)N(C)C)C(=O)C[C@@H](Cc1csc(N)n1)C(=O)N[C@@H](CC1CCCCC1)[C@@H](O)[C@@H]1CC(C)(C)N(C)C1=O` ?
8.62

Would you kindly share the measured pIC50 for `CC(C)CC[C@H](O)[C@H](CC1CCCCC1)NC(=O)[C@@H](CC(=O)N(CC(=O)N(C)CCc1ccccn1)CC1CCCCC1)Cc1csc(N)n1` ?
7.44

Would you kindly share the measured pIC50 for `CC(C)OC(=O)[C@H](O)[C@H](CC1CCCCC1)NC(=O)[C@@H](CC(=O)N(CC(=O)N(C)C)[C@@H](C)c1ccccc1)Cc1csc(N)n1` ?
7.80

Would you kindly share the measured pIC50 for `CC(C)C[C@H](O)[C@H](O)[C@H](CC1CCCCC1)NC(=O)[C@@H](CC(=O)N(CC(=O)N(C)C)CC1CCCCC1)Cc1csc(N)n1` ?
9.05

Would you kindly share the measured pIC50 for `CC(C)C[C@H](O)[C@H](O)[C@H](CC1CCCCC1)NC(=O)[C@@H](CC(=O)N(CC(=O)N(C)C)C[C@H](C)c1ccccc1)CC1CC1` ?
7.16

Would you kindly share the measured pIC50 for `CC(C)C[C@H](O)[C@H](O)[C@H](CC1CCCCC1)NC(=O)[C@@H](CC(=O)N(CC(=O)N(C)CCc1ccccn1)Cc1ccccc1)Cc1cscn1` ?
8.60

Would you kindly share the measured pIC50 for `CC(C)C[C@H](O)[C@H](O)[C@H](CC1CCCCC1)NC(=O)[C@@H](CC(=O)N(CC(=O)N(C)CCN(C)C)[C@@H](C)c1ccccc1)CC1CC1` ?
7.59

Would you kindly share the measured pIC50 for `CC(C)C[C@H](O)[C@H](O)[C@H](CC1CCCCC1)NC(=O)[C@@H](CC(=O)N(CC(=O)N(C)CCc1ccccn1)Cc1ccccc1)CC1CC1` ?
7.47

Would you kindly share the measured pIC50 for `CC(C)C[C@H](O)[C@H](O)[C@H](CC1CCCCC1)NC(=O)[C@@H](CC(=O)N(CC(=O)N(C)C)[C@@H](C)c1ccccc1)Cc1nccs1` ?
8.40

Would you kindly share the measured pIC50 for `CC(C)C[C@H](O)[C@H](O)[C@H](CC1CCCCC1)NC(=O)[C@@H](CC(=O)N(CC(=O)N(C)C)CC1CCCCC1)Cc1ccccc1` ?
7.80

###

Target: human renin (Homo sapiens)
Construct: A human plasma pool is used as the source of both the substrate (angiotensinogen) and the enzyme (renin)
Experiment: Plasma renin assay (inhibition of human renin, angiotensin I by RIA)
Conditions: human plasma pool, pH 6.0, 2 h incubation at 37°
recorded metric: log10(IC50) (log10 of the value in nM)
Reminder: these figures are log10 of reported IC50, in nM before transformation.

Find log10(IC50) (human renin (Homo sapiens)) for the entry `CC(C)C[C@H](O)[C@H](O)[C@H](CC1CCCCC1)NC(=O)[C@@H](CC(=O)N(CC(=O)N(C)C)CC1CCCCC1)CC1CC1`
1.11

Find log10(IC50) (human renin (Homo sapiens)) for the entry `CC(C)C[C@H](O)[C@H](O)[C@H](CC1CCCCC1)NC(=O)[C@@H](CC(=O)N(CC(=O)N(C)CCc1ccccn1)Cc1nccs1)Cc1csc(N)n1`
0.78

Find log10(IC50) (human renin (Homo sapiens)) for the entry `CC(C)C[C@H](O)[C@H](O)[C@H](CC1CCCCC1)NC(=O)[C@@H](CC(=O)N(CC(=O)N1CCOCC1)Cc1ccccc1)CC1CC1`
1.97

Find log10(IC50) (human renin (Homo sapiens)) for the entry `C[C@@H](c1ccccc1)N(CC(=O)N(C)C)C(=O)C[C@@H](Cc1csc(N)n1)C(=O)N[C@@H](CC1CCCCC1)[C@@H](O)[C@@H](O)C1CC1`
0.83

Find log10(IC50) (human renin (Homo sapiens)) for the entry `CC(C)C[C@H](O)[C@H](O)[C@H](CC1CCCCC1)NC(=O)[C@@H](CC(=O)N(CC(=O)N(C)CCc1ccccn1)Cc1ccco1)Cc1csc(N)n1`
0.00

Find log10(IC50) (human renin (Homo sapiens)) for the entry `CC(C)C[C@H](O)[C@H](O)[C@H](CC1CCCCC1)NC(=O)[C@@H](CC(=O)N(CC(=O)N1CCOCC1)CC1CCCCC1)Cc1cccnc1`
1.00

###

Biological target: human renin (Homo sapiens, UniProt P00797)
Construct: A human plasma pool is used as the source of both the substrate (angiotensinogen) and the enzyme (renin)
Test: Plasma renin assay (inhibition of human renin, angiotensin I by RIA)
Conditions: human plasma pool, pH 6.0, 2 h incubation at 37°
pIC50: −log10 of the molar value.
Class criterion met: pIC50 at least 8. Class criterion not met: pIC50 below 8.

Decide: is the reported value of pIC50 for CC(C)C[C@H](O)[C@H](O)[C@H](CC1CCCCC1)NC(=O)[C@@H](CC(=O)N(CC(=O)N(C)CCc1ccccn1)[C@@H](C)C1CCCCC1)Cc1csc(N)n1 [Compound 63] equal to or greater than 8?
criterion met

Decide: is the reported value of pIC50 for CCN(CC)CCN(C)C(=O)CN(C(=O)C[C@@H](CC1CC1)C(=O)N[C@@H](CC1CCCCC1)[C@@H](O)[C@@H](O)CC(C)C)[C@@H](C)c1ccccc1 [Compound 24] equal to or greater than 8?
criterion not met

Decide: is the reported value of pIC50 for CC(C)C[C@H](O)[C@H](O)[C@H](CC1CCCCC1)NC(=O)[C@@H](CC(=O)N(CC(=O)N(C)CCc1ccccn1)CC1CCCCC1)Cc1csc(N)n1 [Compound 50] equal to or greater than 8?
criterion met

Decide: is the reported value of pIC50 for Cc1ccsc1CN(CC(=O)N(C)CCc1ccccn1)C(=O)C[C@@H](Cc1csc(N)n1)C(=O)N[C@@H](CC1CCCCC1)[C@@H](O)[C@@H](O)CC(C)C [Compound 88] equal to or greater than 8?
criterion met

###

Molecular target: human renin (Homo sapiens, UniProt P00797)
Construct: A human plasma pool is used as the source of both the substrate (angiotensinogen) and the enzyme (renin)
Test: Plasma renin assay (inhibition of human renin, angiotensin I by RIA)
Details: human plasma pool, pH 6.0, 2 h incubation at 37°
Please provide measured IC50 for the entries that follow.
All answers are understood in µM, so give the number only.

Would you kindly share the measured IC50 for `CC(C)C[C@H](O)[C@H](O)[C@H](CC1CCCCC1)NC(=O)[C@@H](CC(=O)N(CC(=O)N(C)C)[C@@H](C)c1ccccc1)Cc1cccs1` ?
0.013

Would you kindly share the measured IC50 for `CCCC(CCC)N(CC(=O)N(C)CCc1ccccn1)C(=O)C[C@@H](Cc1csc(N)n1)C(=O)N[C@@H](CC1CCCCC1)[C@@H](O)[C@@H](O)CC(C)C` ?
0.008

Would you kindly share the measured IC50 for `CC(C)C[C@H](O)[C@H](O)[C@H](CC1CCCCC1)NC(=O)[C@@H](CC(=O)N(CC(=O)N(C)CCc1ccccn1)[C@@H](C)c1ccccc1)CC1CC1` ?
0.02

###

Target: human renin (Homo sapiens)
Construct: A human plasma pool is used as the source of both the substrate (angiotensinogen) and the enzyme (renin)
Test: Plasma renin assay (inhibition of human renin, angiotensin I by RIA)
Conditions: human plasma pool, pH 6.0, 2 h incubation at 37°
Description: The assay is performed as follows: The test compound (i.e. the inhibitor) is dissolved in dimethylsulfoxide (1 mM stock solution) and diluted with an aqueous buffer solution of 270 mM 2-(N-morpholino)ethanesulfonic acid and 1% human serum albumin (pH 5.85, also containing dimercaprol and 8-hydroxyquinoline sulfate in accordance with the instructions of the RIA kit noted below) to give an assay mixture in which the final dimethylsulfoxide content is 1% (v/v). […]
recorded metric: IC50 (µM)
All answers are understood in µM, so give the number only.

Find IC50 (human renin (Homo sapiens)) for the entry `CC(C)C[C@H](O)[C@H](O)[C@H](CC1CCCCC1)NC(=O)[C@@H](CC(=O)N(CC(=O)N1CCOCC1)[C@@H](C)c1ccccc1)CC1CC1`
0.12

Find IC50 (human renin (Homo sapiens)) for the entry `CC(C)C[C@H](O)[C@H](O)[C@H](CC1CCCCC1)NC(=O)[C@@H](CC(=O)N(CC(=O)N(C)C)[C@H](C)c1ccccc1)CC1CC1`
0.46

Find IC50 (human renin (Homo sapiens)) for the entry `CC(C)C[C@H](O)[C@H](O)[C@H](CC1CCCCC1)NC(=O)[C@@H](CC(=O)N(CC(=O)N(C)C)[C@@H](C)c1ccccc1)Cc1cscn1`
0.0025

Find IC50 (human renin (Homo sapiens)) for the entry `CC(C)C[C@H](O)[C@H](O)[C@H](CC1CCCCC1)NC(=O)[C@@H](CC(=O)N(CC(=O)N(C)C)[C@@H](C)c1ccccc1)CC1CC1`
0.034

Find IC50 (human renin (Homo sapiens)) for the entry `CC(C)C[C@H](O)[C@H](O)[C@H](CC1CCCCC1)NC(=O)[C@@H](CC(=O)N(CC(=O)N(C)C)Cc1ccccn1)CC1CC1`
0.12

Find IC50 (human renin (Homo sapiens)) for the entry `CC(C)C[C@H](O)[C@H](O)[C@H](CC1CCCCC1)NC(=O)[C@@H](CC(=O)N(CC(=O)N(C)C)[C@@H](C)c1ccccc1)Cc1c[nH]cn1`
0.006

Source of measurements: patent US5541163A
